Test system: PC-3 prostate
Experiment: NCI-60 one-dose screen, 48 h (100 = growth as untreated, 0 = no growth, -100 = all killed)
Conditions: 10 µM unless noted
The panel holds about 83,000 compounds, 20% with a hit somewhere; the sample as a whole holds those more often.
Using growth as the sorting value, the categories are low class (below 20%), middle class (20% to below 30%), high class (30% or more)

{"columns": ["compound", "assignedLabel"],
 "data": [
  ["N#Cc1nc(-c2ccc(Cl)cc2)cc(-c2ccc(Nc3nc(N4CCCCC4)nc(N4CCCCC4)n3)cc2)c1N", "high class"],
  ["COc1ccc2c(c1)N(CCO)C1=C(C(=O)OC1)C2c1cccc(Br)c1 (stereo not given)", "middle class"],
  ["CCCc1n(Cc2ccc3ccccc3n2)cc[n+]1Cc1ccc2ccccc2n1", "middle class"],
  ["CSCCC1NC(=O)C(C(C)=Nc2ccccc2)=C1O (stereo not given)", "high class"],
  ["Cc1cc(NC(=O)C2c3ccccc3C(=O)N(CC(C)C)C2c2cccs2)no1 (stereo not given)", "low class"],
  ["O=C1OCC2=C1C(c1ccc(Cl)c(Cl)c1)c1cc3c(cc1N2CCO)CCC3 (stereo not given)", "middle class"],
  ["CCN(CC)c1ccc2nc3c4ccccc4c(=O)cc-3n(-c3ccccc3)c2c1", "low class"],
  ["COc1c(C(=O)/C=C/c2ccc(C)o2)c(O)cc2occc12", "high class"],
  ["C#CC[C@@H]1C[C@]2(C)[C@H]3CC[C@@H]4[C@H]5C(C(=C)C)CC[C@]5(C(=O)NCCCCN)CC[C@@]4(C)[C@]3(C)CC[C@H]2C(C)(C)[C@H]1OC(C)=O (stereo not given in full)", "low class"],
  ["COc1c(B(O)O)cccc1-c1nc2ccc3[nH]ncc3c2c2c1CCCC2", "low class"]
]}

###

Test system: PC-3 prostate
Test: NCI-60 one-dose screen, 48 h (100 = growth as untreated, 0 = no growth, -100 = all killed)
Settings: 10 µM unless noted
About 83,000 compounds went through this panel and 20% of them were active in at least one assay; those are over-represented in the sample as a whole. Calls of active or inactive are those of the source. Rule for the calls: active = growth percent below 10; inactive = the rest.
readoutLabel: growth

{"columns": ["compound", "readoutLabel", "result"],
 "data": [
  ["Clc1ccc(Nc2ncnc3c2sc2ncccc23)cc1", "growth", "54.5% (inactive)"],
  ["CCNC(=S)N(Cc1ccccc1)Cc1ccccc1", "growth", "95.3% (inactive)"],
  ["O=C(Oc1c(Cl)c(Cl)c(Cl)c(Cl)c1Cl)C1CCCN1C(=O)OCc1ccccc1 (stereo unspecified)", "growth", "10.7% (inactive)"],
  ["O=C(NNC(=S)Nc1ccccc1)c1ccc(Nc2ncnc3c2cnn3-c2cccc(Br)c2)cc1", "growth", "93.5% (inactive)"],
  ["CC(=O)OC1Oc2ccccc2-c2oc3nc(=N)n(C)c-3cc21 (stereo unspecified)", "growth", "97.4% (inactive)"],
  ["Oc1ccc(CCCCCCc2ccc(O)cc2)cc1", "growth", "57.9% (inactive)"],
  ["COc1ccc(/C(=C\\c2cc(OC)c(OC)c(OC)c2)C(=O)N2CCN(c3ccccc3)CC2)cc1O", "growth", "84.4% (inactive)"],
  ["COc1ccc(/C=C/C(=O)c2ccc(NC(=O)CSc3nnc(-c4ccc(OC)cc4)n3-c3ccccc3)cc2)cc1", "growth", "106% (inactive)"],
  ["CCCCCCCCNC(C)C(O)c1ccc(SC(C)C)cc1 (stereo unspecified)", "growth", "7.49% (active)"],
  ["O=C1Nc2ccccc2/C1=C/c1c[nH]c2ccccc12", "growth", "72.3% (inactive)"],
  ["COc1ccc(Nc2ncnc3c2sc2nc(C)cc(C)c23)cc1", "growth", "92.7% (inactive)"],
  ["CCCCCCCCCCCC1=NC(C)(C)CN1C(C)(C)CO", "growth", "54.9% (inactive)"],
  ["c1ccc(C(Nc2ccccn2)(c2ccccc2)c2ccccc2)cc1", "growth", "39.1% (inactive)"],
  ["O=c1[nH]cnc2nc[nH]c12", "growth", "135% (inactive)"],
  ["O=C(OCc1ccc2c(Br)cc(Br)c(O)c2n1)c1cc2ccccc2[nH]1", "growth", "-55.6% (active)"],
  ["O=C1c2ccccc2C(=O)c2c1oc1ccc3ccccc3c21", "growth", "72.3% (inactive)"],
  ["COC(=O)c1ccc(NC(N)=NCCC(C)(C)c2ccc(C(F)(F)F)cc2)nc1", "growth", "36% (inactive)"],
  ["CC1(C)CC[C@]2(C(=O)N3CCNCC3)CC[C@]3(C)C(=CC[C@@H]4[C@@]5(C)CCC(=O)C(C)(C)[C@@H]5CC[C@]43C)[C@@H]2C1", "growth", "101% (inactive)"],
  ["O=C(C=P(c1ccccc1)(c1ccccc1)c1ccccc1)CCl", "growth", "8.54% (active)"],
  ["CNC(=O)c1cc(Oc2ccc(NC(=O)c3[nH]c(SC)nc3-c3ccc(F)cc3)cc2)ccn1", "growth", "33.2% (inactive)"],
  ["O=C(Nc1ccccc1)C(CCCCN1C(=O)c2ccccc2C1=O)N1C(=O)c2ccccc2C1=O (stereo unspecified)", "growth", "98.5% (inactive)"],
  ["CN1CCN(Cc2ccc(NC(=O)c3ccc(C#N)c(C#Cc4cnc(N)c5ncccc45)c3)cc2C(F)(F)F)CC1", "growth", "81.1% (inactive)"],
  ["CS(=O)(=O)Nc1cc(-c2cc3ncc(C#N)c(Nc4ccc(Oc5ccccc5)c(Cl)c4)c3s2)cnc1Cl", "growth", "45.5% (inactive)"],
  ["O=C(C(=O)c1cccnc1)c1cccnc1", "growth", "107% (inactive)"],
  ["CCc1oc2ccccc2c1C(=O)c1cc(I)c(O)c(I)c1", "growth", "74.9% (inactive)"],
  ["COc1cc2nccc(Oc3ccc(NC(=O)C4(C(=O)Nc5ccc(F)cc5)CC4)cc3)c2cc1Oc1ccc(N)cn1", "growth", "24.5% (inactive)"],
  ["CC(=O)c1cc(C(=O)c2ccc3c(c2)Sc2ccccc2N3)c2c(C)cccn12", "growth", "26.8% (inactive)"],
  ["Fc1[nH]nc2ccc([C@@H]3Nc4ccc5[nH]ncc5c4[C@H]4C5CCC(C5)[C@@H]34)cc12 (stereo partly specified)", "growth", "27.8% (inactive)"],
  ["Nc1nc2c(c3ncccc13)C(c1ccccc1)Cc1ncccc1-2 (stereo unspecified)", "growth", "73.9% (inactive)"],
  ["Cc1ccc(NC(=O)c2[nH]c(SCCN(C)C)nc2-c2ccc(F)cc2)cc1C#Cc1cnc2cccnn12", "growth", "34% (inactive)"],
  ["CCOC(=O)c1ccc(NCCC(=O)O)cc1", "growth", "91.7% (inactive)"],
  ["COc1ccc2cc(-c3nc(C)c(C(C)=O)c(-c4ccc(C)cc4)n3)ccc2c1", "growth", "85.9% (inactive)"],
  ["O=C1OC(c2ccc(-c3ccccc3)cc2)=C/C1=C/c1c(Cl)cccc1Cl", "growth", "91.8% (inactive)"],
  ["COc1cc(NCCCCC(C)N)c2nccc(C)c2c1 (stereo unspecified)", "growth", "66% (inactive)"],
  ["CN1CCN(Cc2ccc(NC(=O)c3cncc(C#Cc4ncc5ccccn45)c3)cc2C(F)(F)F)CC1", "growth", "21.9% (inactive)"],
  ["CCc1ccc(Nc2ncnc3c2cnn3-c2cccc(Br)c2)cc1", "growth", "94.9% (inactive)"],
  ["Cc1ccc(/C=C/C(=N/N=C(N)N)c2ccccc2)cc1", "growth", "19% (inactive)"],
  ["c1ccc2c(Cc3csc4ccccc34)csc2c1", "growth", "85.2% (inactive)"],
  ["C1=C\\CCCCN2CC[C@H]3[C@H](CCCC/C=C\\CCCN4C[C@@H](CCCCC/1)C[C@@H]3C4)C2", "growth", "76.7% (inactive)"],
  ["CCN(CC)CCCC(C)N/C(c1cccc(OC)c1)=c1\\c(=O)[nH]n(-c2c3ccccc3nc3ccccc23)c(=O)\\c1=C(/NC(C)CCCN(CC)CC)c1cccc(OC)c1 (stereo unspecified)", "growth", "-57.7% (active)"],
  ["c1ccc(C2=Nc3ccccc3SC2)cc1", "growth", "66.4% (inactive)"]
]}

###

System: HOP-62 NSCLC
Experiment: NCI-60 one-dose screen, 48 h (100 = growth as untreated, 0 = no growth, -100 = all killed)
Conditions: 10 µM unless noted
The panel holds about 83,000 compounds, 20% with a hit somewhere; the sample as a whole holds those more often.
# reported growth; entries follow

{"columns": ["compound", "quantityUnit", "growth"],
 "data": [
  ["O=[N+]([O-])c1cc(F)c2cccnc2c1O", "%", 97.1],
  ["Cc1nc2ccc(Nc3nc(N4CCOCC4)nc(N4CCN(C)CC4)n3)cc2n1Cc1ccccc1", "%", 86.6],
  ["COc1ccc(NC(=O)C2c3ccccc3C(=O)N(CC(C)C)C2c2cccs2)cc1 (stereo not given)", "%", 90.1],
  ["COCCn1c(Nc2ccc(C(=O)NO)cc2)nc2ccccc21", "%", 74.8],
  ["COc1cc2c(cc1I)-c1c(cc(OC)c(OC)c1OC)CC[C@@H]2NC(C)=O", "%", 14.7]
]}
